Entries annotated with measured abundance fitness
B1: Calcium-binding protein 2, residues 155 to 219; numbered along this chain, Q9NPB3 (parent)
chain: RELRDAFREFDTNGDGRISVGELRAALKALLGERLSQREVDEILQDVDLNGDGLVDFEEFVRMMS

# Variants of: B1
# assayInfo: abundance fitness (aPCA) (normalised: wild type 0, dead -1); higher = more abundant; growth selection in yeast, the domain comes from the species named
# setupConditions: Homo sapiens
// print number alone

# count of solved cases: 10
| variantDesignation | abundance fitness |
| --- | --- |
| G51L | 0.06 |
| L23V | -0.133 |
| N13A | -0.537 |
| R8P | -0.573 |
| D52M | -0.168 |
| D11W | -0.631 |
| M64I | -0.014 |
| V20H | -0.043 |
| D48T | 0.057 |
| S36G | -0.093 |

[in] Could you share which abundance fitness value was measured for D5N ?
[out] -0.034

[in] Another variant: L54W
[out] -0.346

[in] Another variant: G16E
[out] -0.1

[in] Another variant: F10V
[out] -0.048

[in] Another variant: F10L
[out] -0.449

[in] Another variant: D52Y
[out] -0.18

[in] Another variant: D41V
[out] -0.237

[in] Another variant: Q37W
[out] -0.031
